The entries below come with measured IC50 of blocking BMP9-induced Smad1 phosphorylation in HUVEC cells (ELISA kit) values attached.
target: human ALK-1 on cells (CHO-K1-hALK-1 cells; HUVEC; A172) (human, UniProt P37023 22-503); assay: cell-based or functional assay
All answers are understood in nM, so give the number only.

anti-ALK-1 antibody #1 (antibody, human IgG1, kappa, L234A L235A, V domains shown) VH: QVQLQESGPGLVKPSQTLSLTCTVSGGSISSGEYYWNWIRQHPGKGLEWIGYIYYSGSTYYNPSLKSRVTISVDTSKNQFSLKLSSVTAADTAVYYCARESVAGFDYWGQGTLVTVSS VL: EIVLTQSPGTLSLSPGERATLSCRASQSVSSSYLAWYQQKPGQAPRLLIYGTSSRATGIPDRFSGSGSGTDFTLTISRLEPEDFAVYYCQGYGSFPITFGQGTRLEIKR
5.8

We now examine a further binder.
Note to self: IC50 of blocking BMP9-induced Smad1 phosphorylation in HUVEC cells (ELISA kit) recorded for anti-ALK-1 antibody #25 (antibody, human IgG1, kappa, L234A L235A, V domains shown) VH: QVQLQESGPGLVKPSQTLSLTCTVSGGSISSGEYYWNWIRQHPGKGLEWIGYIYYSGSTYYNPSLKSRVTISVDTSKNQFSLKLSSVTAADTAVYYCARESVAGFDYWGQGTLVTVSS VL: EIVLTQSPGTLSLSPGERATLSCRASQSVSSSYLAWYQQKPGQAPRLLIYGTSSRATGIPDRFSGSGSGTDFTLTISRLEPEDFAVYYCQVYGSWPITFGQGTRLEIKR was 9.1
